- Tested on: OVCAR-3 ovarian
- assay_details: NCI tumour cell line growth inhibition, 48 h; in the data active means GI50 below about 0.43 µM; inactive means the rest
Hello, when you answer, please use one of the following outcomes: Yes (active), No (inactive)

Q) GET /call?item= `COc1ccc2[nH]cc(C3(c4c[nH]c5ccc(OC)cc45)C(=O)Nc4ccc(Cl)cc43)c2c1` returns the recorded outcome of this test.
A) No

Q) Assay outcome for `CN(CCCCCCCCNc1ccnc2ccccc12)Cc1ccc(-c2ccc(-c3ccc(C#N)cc3)s2)cc1` : what was it?
A) No

Q) Lab log entry: `CCOC(=O)Nc1cc2c(c(N)n1)N=C(c1ccccc1)CN2` — outcome as called in the assay?
A) Yes

Q) Record lookup: outcome of this test for `COc1ccc(C(=O)/C=C/c2c(C(F)(F)F)nc3ccccn23)cc1OC` ?
A) No

Q) I'd appreciate the recorded outcome for `C#Cc1cccc(Nc2ncnc3ccc(-c4cnc(N)nc4)cc23)c1` from this test.
A) No

Q) Fill in: this test's call for `COc1cc(C(=O)c2cnc(-c3ccc4cc[nH]c4c3)[nH]2)cc(OC)c1OC` is ___
A) Yes

Q) Write down the call the test reported for this molecule. Item: CCOP(=O)(OCC)C(NC(c1ccccc1)c1ccccc1)c1ccsc1 (configuration not stated)
A) No

###

Please provide measured GI50 for the entries that follow.
- Tested on: RPMI-8226 leukemia
- assay_details: NCI tumour cell line growth inhibition, 48 h

Q) Fill in the recorded GI50 for this molecule, with RPMI-8226 leukemia as test system: `CN(C)C[C@@H]1CCn2cc(c3ccccc32)C2=C(C(=O)NC2=O)c2cn(c3ccccc23)CCO1`
A) 1130 nM

Q) API: value(readout= GI50, system= RPMI-8226 leukemia, query= `Cc1c(C(=O)/C=C/c2ccc(Cl)cc2)nnn1-c1ccnc2c(C(F)(F)F)cccc12` )
A) 8470 nM

Q) Can you look up GI50 on RPMI-8226 leukemia for `N#Cc1ccc(C(=O)c2cnn(-c3ccc(F)cc3)c2N)cc1` ?
A) > 25000 nM

Q) Report GI50 for `O=C1/C=C/[C@@H](O)[C@@H]2C[C@@H](O)C[C@H]2/C=C/CCC[C@H](CCc2ccc(NC(=S)Nc3ccc4c(c3)C(=O)OC43c4ccc(O)cc4Oc4cc(O)ccc43)cc2)O1` tested on RPMI-8226 leukemia.
A) 339 nM

###

- Test system: TK-10 renal
- assay_details: NCI tumour cell line growth inhibition, 48 h
measurement_name: TGI (µM)
Reply numerically in µM, unit not repeated.

Q) Give the measured TGI of `CCN(CC)CCCNc1nccc2c(C)c3[nH]c4ccncc4c(=O)c3cc12` .
A) 22.5

Q) Could you share which TGI value was measured for `CCN(CC)CCC(=O)Nc1ccc2sc3ccccc3c(=O)c2n1` ?
A) 57.5

Q) Could you tell me which TGI is on file for `COc1ccc2[nH]cc(Cc3c[nH]c4ccc(OC)cc34)c2c1` ?
A) 44

Q) Request the reported TGI associated with CC(C)(CN1CCCCC1)C(=O)CC(SCCS(=O)(=O)O)c1ccccc1 (stereo not given)
A) 38.1

###

- Tested on: HCT-116 colon
- assay_details: NCI tumour cell line growth inhibition, 48 h; in the data active means GI50 below about 0.43 µM; inactive means the rest
Give one outcome, nothing more. List: active, inactive

Q) # lookup: test call for `Cc1ccc2c(c1)C(=O)/C(=C/c1cccc(OCC(=O)c3ccc(Cl)cc3)c1)CS2`
A) inactive

Q) Hey, what did the test say about `O=C(Nc1cccc(-n2ccc3c(NC(=O)c4ccccc4)nccc32)c1)c1ccc(Cl)c(Cl)c1` ?
A) active

Q) What outcome does the record of this test show for `Cl.[O-]c1cccc2cccnc12.[O-]c1cccc2cccnc12.[O-]c1cccc2cccnc12.[O-]c1cccc2cccnc12.[Ti+4]` ?
A) active
